- Tested System: calmodulin-dependent cyclic AMP phosphodiesterase (Homo sapiens, UniProt P0DP23)
- Assay Overview: Inhibition of calmodulin-dependent cyclic AMP phosphodiesterase
- Assay type: biochemical
- Applied Conditions: unpublished data of the authors
Value Kind: pIC50
Please keep in mind that pIC50 is minus log10 of the molar concentration; only the number is needed.

What reported pIC50 corresponds to CC/C(=C(/c1ccc(OCCN(C)C)cc1)c1cccc(O)c1)c1ccccc1 [3-hydroxytamoxifen] on calmodulin-dependent cyclic AMP phosphodiesterase (Homo sapiens, UniProt P0DP23)? 4.89

====

- Tested on: 41M cells
- Assay Overview: SRB cytotoxicity assay, 41M
- Applied Conditions: Homo sapiens, read-out: 96 h IC50, doxorubicin cytotoxicity, 41M
Value Kind: pIC50
Please keep in mind that pIC50 is minus log10 of the molar concentration; only the number is needed.

What does the data say about its pIC50? Entry: COc1cccc2c1C(=O)c1c(O)c3c(c(O)c1C2=O)C[C@@](O)(C(=O)CO)C[C@@H]3O[C@H]1C[C@H](N)[C@H](O)[C@H](C)O1 7.41

Measured values drawn from paper PMC2033360 for this set.
